test system: Streptococcus mitis; experiment: Antimicrobial activity against Streptococcus mitis ATCC 903 at 25 ug/ml after 30 mins by time-kill assay; assay type: functional, organism-based
Calls of active or inactive are those of the source. The calls are words filed in the database; no cut-off is given here.
ATTRIBUTE MEASURED: Activity

>>> measurement("H-FIKHFIHRFGGGRWRWRWF-NH2")
"Active"
>>> measurement("H-FIKHFIHRFGGGFKKFWKWFRRF-NH2")
"Active"
>>> measurement("H-RWRWRWF-NH2")
"Active"
>>> measurement("H-FKKFWKWFRRF-NH2")
"Active"

* * *

# reported MIC; entries follow
test system: Escherichia coli; test: Antimicrobial activity against Escherichia coli W3110 after 16 to 20 hrs by broth microdilution assay; type: functional
ATTRIBUTE MEASURED: MIC

>>> measurement("H-FIKHFIHRF-NH2")
"> 500 µg/mL"
>>> measurement("H-AAKHAAHRA-NH2")
"> 500 µg/mL"
>>> measurement("H-LIKHILHRL-NH2")
"> 500 µg/mL"
>>> measurement("H-WWQDWWNEW-NH2")
"> 500 µg/mL"
>>> measurement("H-WWYNWWQDW-NH2")
"> 500 µg/mL"
>>> measurement("H-WWKDWWERW-NH2")
"> 500 µg/mL"
